List of MIC Aspergillus niger ATCC 16404 values.
system: Aspergillus niger ATCC 16404; assay: Antifungal susceptibility study (1), broth microdilution MIC; assay type: cell-based; settings: lowest concentration preventing any visible growth, read at 48 hours, 35° C., RPMI 1640 pH 7.0
Give the value in µg/mL but do not write µg/mL after it.

See these solved cases before continuing.
>>> numericvalue("COC(=O)C(NC(=O)C1C(O)CC2(O)CC(O)C(O)CCC(O)CC(O)CC(O)CC(=O)OC(C)C(C)C(O)C(C)C=CC=CC=CC=CC=CC=CC=CC(OC3OC(C)C(O)C(N)C3O)CC1O2)C(C)C (stereo not drawn)")
4
>>> numericvalue("CC1C=CC=CC=CC=CC=CC=CC=CC(OC2OC(C)C(O)C(NCC3(O)OCC(O)C(O)C3O)C2O)CC2OC(O)(CC(O)C(O)CCC(O)CC(O)CC(O)CC(=O)OC(C)C(C)C1O)CC(O)C2C(=O)NCCCN(C)C (stereo not drawn) [Compound 30]")
1

Next item in the queue.
Specify MIC Aspergillus niger ATCC 16404 for CC1C=CC=CC=CC=CC=CC=CC=CC(OC2OC(C)C(O)C(N)C2O)CC2OC(O)(CC(O)C(O)CCC(O)CC(O)CC(O)CC(=O)OC(C)C(C)C1O)CC(O)C2C(=O)NCCO (stereo not drawn) and stop.
4
